Test: AUClast in CD1 mouse at 30 mg/kg, po
Assay type: ADME, organism-based
Design: dose 30 mg/kg, route oral, time 0 - last
Cond: in vivo
So I've got a bunch of compounds here, and I need their AUC(0-t) values.
Answers are plain numbers, in ng·h/mL.

Input line: AUC(0-t) lookup needed for O=c1[nH]c(=O)n(Cc2cccc3ccccc23)nc1O , thanks.
Output line: 12900

Okay, next one:
Input line: AUC(0-t) lookup needed for O=c1[nH]nc(CCc2cc(F)cc(F)c2)cc1O , thanks.
Output line: 3900

###

Test: AUClast in CD1 mouse at 30 mg/kg, iv
Format: ADME, organism-based
Design: dose 30 mg/kg, route intravenous, time 0 - last
Cond: in vivo
Assay readout: AUC(0-t)
// unit must come after the numeric part

Input line: AUC(0-t) lookup needed for O=c1[nH]c(=O)n(Cc2cccc3ccccc23)nc1O , thanks.
Output line: 16300 ng·h/mL

###

Test: Volume of distribution in CD1 mouse at 10 mg/kg, iv
Assay type: ADME, organism-based
Cond: in vivo
Assay readout: Vd (L/kg)
Answers are plain numbers, in L/kg.

Input line: Vd lookup needed for O=c1[nH]nc(CCc2cc(F)cc(F)c2)cc1O , thanks.
Output line: 0.5

###

Tested target: D-amino-acid oxidase (Homo sapiens, UniProt P14920)
Sequence (P14920 whole entry): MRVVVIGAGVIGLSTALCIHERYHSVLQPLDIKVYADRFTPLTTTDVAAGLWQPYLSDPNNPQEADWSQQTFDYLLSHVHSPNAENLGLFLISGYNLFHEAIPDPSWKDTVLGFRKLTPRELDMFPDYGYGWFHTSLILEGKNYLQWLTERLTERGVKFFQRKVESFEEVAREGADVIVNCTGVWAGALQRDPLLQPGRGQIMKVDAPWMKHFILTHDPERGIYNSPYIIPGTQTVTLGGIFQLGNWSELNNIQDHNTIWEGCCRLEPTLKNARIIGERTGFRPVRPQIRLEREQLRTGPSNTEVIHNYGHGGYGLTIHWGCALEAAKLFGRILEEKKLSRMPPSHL
Test: Inhibition of recombinant human DAAO expressed in HEK cells using D-serine as substrate assessed as formation of alpha-keto acid, ammonia, […] after 20 mins by horseradish peroxidase/o-phenylenediamine-based assay
Design: species or system HEK293
So I've got a bunch of compounds here, and I need their IC50 values.
Give bare numbers, in nM.

Input line: Notebook: pull reported IC50 for D-amino-acid oxidase (Homo sapiens, UniProt P14920), entry Cn1nc(O)c(=O)[nH]c1=O
Output line: 2800

Input line: Notebook: pull reported IC50 for D-amino-acid oxidase (Homo sapiens, UniProt P14920), entry O=c1[nH]c(=O)n(CCc2ccc(O)cc2)nc1O
Output line: 110

Input line: Notebook: pull reported IC50 for D-amino-acid oxidase (Homo sapiens, UniProt P14920), entry O=c1[nH]c(=O)n(CCc2ccc(F)cc2)nc1O
Output line: 50

Okay, next one:
Input line: Notebook: pull reported IC50 for D-amino-acid oxidase (Homo sapiens, UniProt P14920), entry O=c1[nH]c(=O)n(CCn2cnc3ccccc32)nc1O
Output line: 440

###

Test: Clearance in CD1 mouse at 30 mg/kg, iv
Type: ADME, organism-based
Cond: in vivo
Assay readout: clearance (mL/min/kg)
One number for each entry, in mL/min/kg.

Input line: clearance lookup needed for O=c1[nH]c(=O)n(Cc2cccc3ccccc23)nc1O , thanks.
Output line: 10.2

###

Test: Metabolic stability in mouse liver microsomes assessed as compound remaining at 5 uM after 60 mins by LC/MS/MS analysis in presence of NADPH
Type: ADME
Cond: 1 h
Assay readout: Stability (%)
Answers are plain numbers, in %.

Input line: Stability lookup needed for O=c1[nH]nc(CCc2cc(F)cc(F)c2)cc1O , thanks.
Output line: 92

Okay, next one:
Input line: Stability lookup needed for O=c1[nH]c(=S)n(CCc2ccccc2)nc1O , thanks.
Output line: 87

###

Tested target: D-amino-acid oxidase (Homo sapiens)
Test: Inhibition of recombinant human DAAO expressed in HEK cells using D-serine as substrate assessed as formation of alpha-keto acid, ammonia, […] after 20 mins by horseradish peroxidase/o-phenylenediamine-based assay
Set-up: species or system HEK293
Assay readout: pIC50
Numbers only, as −log10 of the molar value.

// known answers, use as guide
Input line: pIC50 lookup needed for O=c1[nH]c(=O)n(Cc2ccccc2)nc1O , thanks.
Output line: 5.29

Input line: pIC50 lookup needed for COc1cccc(CCn2nc(O)c(=O)[nH]c2=O)c1 , thanks.
Output line: 6.92

Input line: pIC50 lookup needed for O=c1[nH]c(=O)n(Cc2ccc3ccccc3c2)nc1O , thanks.
Output line: 6.66

Input line: pIC50 lookup needed for O=c1[nH]c(=O)n(CCc2ccccc2)nc1O , thanks.
Output line: 7.15

Input line: pIC50 lookup needed for O=c1[nH]c(=O)n(CCc2ccccc2O)nc1O , thanks.
Output line: 7.05

Input line: pIC50 lookup needed for Cc1ccc(CCn2nc(O)c(=O)[nH]c2=O)cc1 , thanks.
Output line: 7.05

Input line: pIC50 lookup needed for CC(C)CCn1nc(O)c(=O)[nH]c1=O , thanks.
Output line: 6.59

Input line: pIC50 lookup needed for O=c1[nH]c(=O)n(CCn2ccc3cccnc32)nc1O , thanks.
Output line: 6.51

Okay, next one:
Input line: pIC50 lookup needed for Cc1cccc(CCn2nc(O)c(=O)[nH]c2=O)c1 , thanks.
Output line: 7.15
